All figures here come from patent US20250250357A1.

Reported OD450 by item:
- Experimental Target: T1, human MSLN-R3-his protein (human, UniProt Q13421 487-598)
- T1 construct: it is put last here; also called human MSLN-R3 protein; hMSLN-R3-his; not shown: His tag
- T1 sequence (Q13421 495-606): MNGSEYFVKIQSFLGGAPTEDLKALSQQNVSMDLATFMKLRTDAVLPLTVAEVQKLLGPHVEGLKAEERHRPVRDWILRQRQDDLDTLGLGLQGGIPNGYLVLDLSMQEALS
- Assay Notes: ELISA on coated antigen, antibody 0.02 nM
# output: bare number, implied unit OD

[
  {
    "Binder": "S009-F7.11.11 (antibody, human IgG1, kappa, V domains shown, Human-murine chimeric antibody, human IgG1 heavy and kappa light constant regions) VH: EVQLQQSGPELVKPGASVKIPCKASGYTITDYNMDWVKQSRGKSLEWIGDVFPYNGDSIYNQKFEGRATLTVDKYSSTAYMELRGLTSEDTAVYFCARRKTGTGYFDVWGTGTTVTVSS VL: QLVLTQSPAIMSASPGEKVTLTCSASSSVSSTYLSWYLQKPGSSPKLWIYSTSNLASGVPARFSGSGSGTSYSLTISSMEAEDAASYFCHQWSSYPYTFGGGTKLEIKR",
    "Property Name": "OD450",
    "Unit String": "OD",
    "Endpoint Value": 0.32
  }
]

Please find the next binder below.
Task: Please give the measured OD450 for this binder: S009-F7.18.10 (antibody, human IgG1, kappa, V domains shown, Human-murine chimeric antibody, human IgG1 heavy and kappa light constant regions) VH: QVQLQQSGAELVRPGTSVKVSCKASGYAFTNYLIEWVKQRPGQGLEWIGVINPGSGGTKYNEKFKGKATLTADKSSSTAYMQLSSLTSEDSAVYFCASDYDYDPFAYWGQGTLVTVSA VL: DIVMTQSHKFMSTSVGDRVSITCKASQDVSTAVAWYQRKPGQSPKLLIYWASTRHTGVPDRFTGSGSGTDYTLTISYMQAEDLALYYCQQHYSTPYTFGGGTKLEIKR
Output: 0.05
